# test_protocol: Half life in rat at 2.0 mg/kg, po or 0.5 mg/kg, iv
# Format: ADME, organism-based
# run_parameters: in vivo
parameter: half-life (h)
Number in h, nothing else.

# input So what does the record say about half-life for C[C@H](c1nc2ncccc2c(=O)n1-c1ccc(Cl)cc1)N(CC1CCS(=O)(=O)CC1)C(=O)Cc1ccc(F)c(C(F)(F)F)c1 ?
# output 4

###

# tested_on: hERG (KCNH2) (Homo sapiens)
# Sequence (Q12809 whole entry): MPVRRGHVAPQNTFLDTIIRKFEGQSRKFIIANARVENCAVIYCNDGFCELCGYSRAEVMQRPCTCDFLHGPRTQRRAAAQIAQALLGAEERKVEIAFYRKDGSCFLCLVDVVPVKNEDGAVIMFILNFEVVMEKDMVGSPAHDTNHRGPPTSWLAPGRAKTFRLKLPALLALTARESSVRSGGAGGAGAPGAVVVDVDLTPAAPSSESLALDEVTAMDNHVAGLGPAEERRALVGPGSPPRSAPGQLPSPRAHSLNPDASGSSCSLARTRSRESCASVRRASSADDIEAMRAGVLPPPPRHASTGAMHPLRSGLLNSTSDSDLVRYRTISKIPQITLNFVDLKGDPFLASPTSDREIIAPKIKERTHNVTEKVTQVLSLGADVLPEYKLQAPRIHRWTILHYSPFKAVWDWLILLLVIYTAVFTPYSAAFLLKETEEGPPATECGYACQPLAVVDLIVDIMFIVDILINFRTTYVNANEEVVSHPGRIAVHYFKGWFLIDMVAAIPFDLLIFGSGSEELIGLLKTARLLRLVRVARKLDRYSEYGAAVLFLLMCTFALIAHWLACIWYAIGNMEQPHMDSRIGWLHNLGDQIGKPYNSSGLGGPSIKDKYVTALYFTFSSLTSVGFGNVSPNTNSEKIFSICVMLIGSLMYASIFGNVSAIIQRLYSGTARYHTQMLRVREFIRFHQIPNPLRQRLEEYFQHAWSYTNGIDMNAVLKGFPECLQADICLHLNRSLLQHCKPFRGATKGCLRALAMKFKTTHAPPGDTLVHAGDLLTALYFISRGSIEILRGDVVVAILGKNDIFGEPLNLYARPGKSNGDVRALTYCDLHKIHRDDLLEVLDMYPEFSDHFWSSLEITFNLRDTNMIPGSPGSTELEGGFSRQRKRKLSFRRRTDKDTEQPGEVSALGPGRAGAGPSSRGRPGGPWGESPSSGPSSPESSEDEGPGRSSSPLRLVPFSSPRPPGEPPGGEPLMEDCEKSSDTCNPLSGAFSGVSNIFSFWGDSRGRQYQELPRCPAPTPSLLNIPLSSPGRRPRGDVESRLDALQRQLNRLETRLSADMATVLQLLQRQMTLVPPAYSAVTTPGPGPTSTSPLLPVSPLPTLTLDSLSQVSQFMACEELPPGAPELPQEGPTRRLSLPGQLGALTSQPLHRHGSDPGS
# test_protocol: Inhibition of hERG at 10 uM relative to control
# Assay type: toxicity
parameter: inhibition at 10 µM
Note to self: number, then unit, no commentary.

# input So what does the record say about inhibition at 10 µM for CCNc1nnc(-c2cnc(N3C[C@H](CC)N(C4CCN(Cc5ccc(Cl)cc5)CC4)C[C@H]3C)c(C)n2)o1 ?
# output 25%

###

# tested_on: Voltage-gated inwardly rectifying potassium channel KCNH2 (Homo sapiens)
# Sequence (Q12809 whole entry): as above
parameter: IC50

# input So what does the record say about IC50 for O=C(Cn1c(=O)[nH]c2ccccc21)N1CCN(c2ncc(Cl)cc2-c2cnc(N3CCC(O)CC3)nc2)CC1 ?
# output 31.6 µM

###

# tested_on: hERG (KCNH2) (Homo sapiens)
# test_protocol: Inhibition of hERG at 3 uM relative to control
# Assay type: toxicity
parameter: inhibition at 3 µM (%)
Number in %, nothing else.

# input So what does the record say about inhibition at 3 µM for CC[C@H]1CN(c2ncc(C(N)=O)nc2C)CCN1C1CCN(Cc2ccc(Cl)nc2N)CC1 ?
# output 0

###

# tested_on: C-X-C chemokine receptor type 3 (Homo sapiens)
# Sequence (P49682 whole entry): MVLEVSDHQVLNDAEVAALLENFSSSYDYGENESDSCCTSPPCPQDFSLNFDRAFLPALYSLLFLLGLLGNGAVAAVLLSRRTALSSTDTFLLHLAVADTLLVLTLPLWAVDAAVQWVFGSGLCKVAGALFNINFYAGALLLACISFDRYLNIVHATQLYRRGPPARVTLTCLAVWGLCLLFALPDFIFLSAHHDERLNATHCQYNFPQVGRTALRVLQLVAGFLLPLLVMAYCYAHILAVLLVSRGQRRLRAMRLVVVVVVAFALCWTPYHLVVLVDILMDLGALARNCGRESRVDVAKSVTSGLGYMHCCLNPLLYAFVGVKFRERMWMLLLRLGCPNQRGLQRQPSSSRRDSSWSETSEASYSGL
# test_protocol: Antagonist activity at CXCR3 (unknown origin)
parameter: pIC50
The quantity pIC50 is defined as the negative base-10 logarithm of the molar concentration.

# input Recall the recorded pIC50 for Cc1ccc(C(Nc2c(Nc3cccc(C(=O)N(C)C)c3O)c(=O)c2=O)C2(C)CCCO2)o1 (stereo unspecified) with C-X-C chemokine receptor type 3 (Homo sapiens) and state it.
# output 8.90

###

# test_protocol: Clearance in mouse at 30 mg/kg, po
# Format: ADME, organism-based
# run_parameters: in vivo
parameter: CL/F (mL/min/kg)
Number in mL/min/kg, nothing else.

# input So what does the record say about CL/F for CC(=O)N1C2C=C(CN3[C@@H]4CC[C@H]3C[C@H](Nc3ccc5ccc(OC(C)C)cc5n3)C4)CC1CCC2 ?
# output 9

###

Examples of molecules with documented pIC50 follow.
# tested_on: C-X-C chemokine receptor type 3 (Homo sapiens, UniProt P49682)
# Sequence (P49682 whole entry): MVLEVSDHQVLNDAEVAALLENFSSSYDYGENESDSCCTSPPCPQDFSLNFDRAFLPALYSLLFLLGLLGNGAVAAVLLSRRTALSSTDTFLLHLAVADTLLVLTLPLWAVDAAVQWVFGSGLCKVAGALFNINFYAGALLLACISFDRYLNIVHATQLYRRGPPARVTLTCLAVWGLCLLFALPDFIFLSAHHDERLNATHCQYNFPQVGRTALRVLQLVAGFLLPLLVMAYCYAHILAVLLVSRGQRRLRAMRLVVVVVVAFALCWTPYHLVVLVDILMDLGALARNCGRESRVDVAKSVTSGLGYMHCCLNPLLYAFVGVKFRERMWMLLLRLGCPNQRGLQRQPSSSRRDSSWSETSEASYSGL
# test_protocol: Antagonist activity at CXCR3 (unknown origin) assessed as reduction in CXCL10 induced calcium flux by flow cytometry
The quantity pIC50 is defined as the negative base-10 logarithm of the molar concentration.

N#Cc1ccc(S(=O)(=O)N(Cc2ccc(-c3nnn[nH]3)c(F)c2)Cc2ccccc2F)cc1: 6.70

Would you kindly look at the next entry?
# input So what does the record say about pIC50 for CC(=O)Nc1cccc(/C(C)=N\NC(=O)c2ccc(CN(Cc3ccccc3)S(=O)(=O)c3ccc(Cl)cc3)cc2)c1 ?
# output 6.30

###

Examples of molecules with documented pKi follow.
# tested_on: C-X-C chemokine receptor type 3 (Homo sapiens, UniProt P49682)
# test_protocol: Antagonist activity at human CXCR3 assessed as reduction in CXCL11 induced calcium flux by [35S]GTPgammaS binding assay
The quantity pKi is defined as the negative base-10 logarithm of the molar concentration.

Some entries whose results are on file:
O=C(Nc1ccc2ccccc2c1)NC1CCN(CC2=CCCCCC2)CC1: 7.00
CC1(C)[C@H]2CC=C(CN3CCC(Nc4nc(-c5cc(C(F)(F)F)cc(C(F)(F)F)c5)ns4)CC3)[C@@H]1C2: 6.60

Would you kindly look at the next entry?
# input So what does the record say about pKi for CC(=O)N1C2C=C(CN3[C@@H]4CC[C@H]3C[C@H](NC(=O)Nc3cc(F)cc(C(F)(F)F)c3)C4)CC1CCC2 ?
# output 8.20

###

Examples of compounds with documented logD follow.
# test_protocol: Lipophilicity, logD of compound at pH 7.4
# Assay type: physicochemical
# run_parameters: buffer

CC(=O)N1C2C=C(CN3[C@@H]4CC[C@H]3C[C@H](Nc3ccc5ccc(OC(C)C)cc5n3)C4)CC1CCC2: 2.9
CC1(C)[C@H]2CC=C(CN3CCC(Nc4nc(-c5cc(C(F)(F)F)cc(C(F)(F)F)c5)ns4)CC3)[C@@H]1C2: 5

Would you kindly look at the next entry?
# input So what does the record say about logD for CC(=O)N1C2C=C(CN3[C@@H]4CC[C@H]3C[C@H](NC(=O)Nc3cc(F)cc(C(F)(F)F)c3)C4)CC1CCC2 ?
# output 3.1

###

# tested_on: C-X-C chemokine receptor type 3 (Homo sapiens, UniProt P49682)
# Sequence (P49682 whole entry): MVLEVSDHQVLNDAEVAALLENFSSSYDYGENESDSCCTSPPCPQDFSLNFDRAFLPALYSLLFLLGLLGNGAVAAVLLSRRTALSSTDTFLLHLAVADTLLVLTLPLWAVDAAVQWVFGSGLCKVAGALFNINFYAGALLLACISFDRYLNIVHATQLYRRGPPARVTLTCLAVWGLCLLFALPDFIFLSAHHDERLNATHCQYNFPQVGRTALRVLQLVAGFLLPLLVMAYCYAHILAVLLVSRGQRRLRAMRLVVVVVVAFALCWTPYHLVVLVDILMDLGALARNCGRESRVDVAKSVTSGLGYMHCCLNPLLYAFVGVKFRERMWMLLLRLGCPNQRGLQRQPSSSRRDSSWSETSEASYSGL
# test_protocol: Antagonist activity at CXCR3 (unknown origin) assessed as reduction in CXCL10 induced calcium flux by FLIPR method
parameter: pKi
The quantity pKi is defined as the negative base-10 logarithm of the molar concentration.

# input Recall the recorded pKi for CC(=O)Nc1cccc(/C(C)=N\NC(=O)c2ccc(CN(Cc3ccccc3)S(=O)(=O)c3ccc(Cl)cc3)cc2)c1 with C-X-C chemokine receptor type 3 (Homo sapiens, UniProt P49682) and state it.
# output 5.19

###

# test_protocol: AUC in rat at 2 mg/kg, po
# Assay type: ADME, organism-based
# Design: dose 2 mg/kg, route po
# run_parameters: in vivo
parameter: AUC
Note to self: number, then unit, no commentary.

# input So what does the record say about AUC for CNc1ncc(-c2cc(C(F)(F)F)ccc2N2CCN(C(=O)Cn3nc(C)cc3C)CC2)cn1 ?
# output 271 ng·h/mL

###

# test_protocol: Clearance in rat at 10 mg/kg, po or 0.2 mg/kg, iv
# Format: ADME, organism-based
# run_parameters: in vivo
parameter: clearance

# input So what does the record say about clearance for N#Cc1ccc(S(=O)(=O)N(Cc2ccc(-c3nnn[nH]3)c(F)c2)Cc2ccccc2F)cc1 ?
# output 1.7 L/h/kg

###

# test_protocol: Solubility of compound
# Assay type: physicochemical
parameter: solubility (µg/mL)
Number in µg/mL, nothing else.

# input So what does the record say about solubility for CC(=O)N1C2C=C(CN3[C@@H]4CC[C@H]3C[C@H](NC(=O)Nc3cc(F)cc(C(F)(F)F)c3)C4)CC1CCC2 ?
# output 40

###

# tested_on: C-X-C chemokine receptor type 3 (Homo sapiens)
# test_protocol: Displacement of [125I]-CXCL10 from CXCR3 in human PBMC cells by scintillation proximity assay
# Format: cell-based
parameter: pIC50
The quantity pIC50 is defined as the negative base-10 logarithm of the molar concentration.

C[C@H](c1nc2ncccc2c(=O)n1-c1ccc(Cl)cc1)N(CC1CCS(=O)(=O)CC1)C(=O)Cc1ccc(F)c(C(F)(F)F)c1: 8.20

# input So what does the record say about pIC50 for C[C@H](c1nc2ncccc2c(=O)n1-c1ccc(Cl)cc1)N(CC1CCS(=O)(=O)CC1)C(=O)Cc1ccc(C(F)(F)F)c(F)c1 ?
# output 8.20
